Origin of the recorded values: patent US10112940B2

Consider the following compounds; for each one, report its IC50.

Request: Reported IC50 for JMJD2C (Homo sapiens (Human)), given CN(c1ccccc1)c1ccc(Oc2nc(O)c3ccncc3n2)cc1F ?
Result: 100 to 1000 nM

Request: Reported IC50 for JMJD2C (Homo sapiens (Human)), given Oc1nc(Oc2ccc3ccn(Cc4ccccc4)c3c2)nc2cnccc12 ?
Result: 1000 to 10000 nM

Request: Reported IC50 for JMJD2C (Homo sapiens (Human)), given C[C@@H](c1ccccc1)N(C)c1ccc(Oc2nc(O)c3ccncc3n2)cc1 ?
Result: 100 to 1000 nM

Request: Reported IC50 for JMJD2C (Homo sapiens (Human)), given CN(C)c1ccc(N(C)c2ccc(Oc3nc(O)c4ccncc4n3)cc2)cc1 ?
Result: ≤ 100 nM

Request: Reported IC50 for JMJD2C (Homo sapiens (Human)), given CC(C)c1ccc(N(C)c2ccc(Oc3nc(O)c4ccncc4n3)cc2)cc1 ?
Result: 1000 to 10000 nM

Request: Reported IC50 for JMJD2C (Homo sapiens (Human)), given CN(c1ccc(Oc2nc(O)c3ccncc3n2)cc1)c1ccc(N2CCOCC2)cc1 ?
Result: 100 to 1000 nM

Request: Reported IC50 for JMJD2C (Homo sapiens (Human)), given CN1CCN(c2cccc(N(C)c3ccc(Oc4nc(O)c5ccncc5n4)cc3)c2)CC1=O ?
Result: 100 to 1000 nM

Request: Reported IC50 for JMJD2C (Homo sapiens (Human)), given CC(C)c1ccc(N(c2ccc(Oc3nc(O)c4ccncc4n3)cc2)C2CCOCC2)cc1 ?
Result: 100 to 1000 nM

Request: Reported IC50 for JMJD2C (Homo sapiens (Human)), given CN(c1ccc(C#N)cc1)c1ccc(Oc2nc(O)c3ccncc3n2)cc1 ?
Result: 100 to 1000 nM
